test system: RAW-Dual (murine macrophage reporter line); test: IRF reporter (Lucia luciferase) activity fold change vs agonist alone; higher = enhanced IRF activity; conditions: modulator concentration 10 µM; agonist: LPS 0.1 ug/mL
# binarize IRF reporter: threshold 0.9 inclusive, high side criterion met, low side criterion not met

INPUT: IRF reporter >= 0.9 for `CN1CCN(c2ccc3nc(-c4c(N)c5c(F)cccc5[nH]c4=O)[nH]c3c2)CC1` ?
OUTPUT: criterion not met

INPUT: IRF reporter >= 0.9 for `Cc1cn([C@H]2C=C[C@@H](CO)O2)c(=O)[nH]c1=O` ?
OUTPUT: criterion met

INPUT: IRF reporter >= 0.9 for `COc1ccc(-c2ccc(OCCNC(=O)Cc3ccc(Br)cc3)nn2)cc1` ?
OUTPUT: criterion met

INPUT: IRF reporter >= 0.9 for `O=C(C=Cc1ccc(Cl)c(Cl)c1)c1ccc2ccccc2c1O` ?
OUTPUT: criterion met

INPUT: IRF reporter >= 0.9 for `Brc1ccc(-c2cc(-c3ccccc3)nc(N3CCOCC3)n2)cc1` ?
OUTPUT: criterion met

INPUT: IRF reporter >= 0.9 for O=C(NC1CCOCC1)N1CCOC(c2cc(Cl)cc(Cl)c2)C1 (stereo not given) ?
OUTPUT: criterion met

INPUT: IRF reporter >= 0.9 for `CC(=O)O.NCc1ccc(S(N)(=O)=O)cc1` ?
OUTPUT: criterion met

INPUT: IRF reporter >= 0.9 for `Cl.Cl.O=C1c2c(O)ccc(O)c2C(=O)c2c(NCCNCCO)ccc(NCCNCCO)c21` ?
OUTPUT: criterion not met

INPUT: IRF reporter >= 0.9 for `CCC(C)(C)C(=O)O[C@H]1C[C@@H](C)C=C2C=C[C@H](C)[C@H](CC[C@@H]3C[C@@H](O)CC(=O)O3)[C@H]21` ?
OUTPUT: criterion not met

====

test system: RAW-Dual (murine macrophage reporter line); test: viability score (confluency relative to resting cells, overnight) (fraction); higher = more viable, active = viable (0.7 or more); conditions: modulator concentration 10 µM
experimental readout: viability score
Lab note: jot the number down without any unit.

INPUT: Item `CN(Cc1cnc2nc(N)nc(N)c2n1)c1ccc(C(=O)N[C@@H](CCC(=O)O)C(=O)O)cc1` : provide viability score
OUTPUT: 0.574

INPUT: Item `CC1(C)OC[C@@H](COC(=O)CCc2ccc(OC[C@@H](O)CNCCNC(=O)N3CCOCC3)cc2)O1.Cl` : provide viability score
OUTPUT: 1

INPUT: Item `CC(C)N(C)CCOC(=O)C(C)(c1ccccc1)c1ccccc1` : provide viability score
OUTPUT: 0.322

INPUT: Item `NC(=O)COc1ccc(Nc2nnc(-c3ccccc3)c3ccccc23)cc1` : provide viability score
OUTPUT: 1.01

INPUT: Item CC(C)Cc1ccc(C(C)C(=O)O)cc1.NCCCC[C@H](N)C(=O)O (stereo not drawn) : provide viability score
OUTPUT: 0.536

INPUT: Item `CCOc1cccc2sc(N(CCCN(C)C)C(=O)c3ccc(Cl)s3)nc12.Cl` : provide viability score
OUTPUT: 0.917

INPUT: Item `Nc1ccccc1NC(=O)c1ccc(CNC(=O)OCc2cccnc2)cc1` : provide viability score
OUTPUT: 0.913

INPUT: Item `CN1CCN(CCCN2c3ccccc3Sc3ccc(C(F)(F)F)cc32)CC1.Cl.Cl` : provide viability score
OUTPUT: 1.02

INPUT: Item `CCN(CC)c1ccc(C=NNC(=O)c2ccccc2C)c(O)c1` : provide viability score
OUTPUT: 0.444

INPUT: Item `CCN(CCCc1ccccc1)CCCc1ccccc1.O=C(O)CC(O)(CC(=O)O)C(=O)O` : provide viability score
OUTPUT: 0.991

INPUT: Item `CN1CCN(C(=O)CN2C(=O)c3cccc4cccc(c34)C2=O)CC1` : provide viability score
OUTPUT: 1.01

INPUT: Item `CC(C)CN(C[C@@H](O)[C@H](Cc1ccccc1)NC(=O)O[C@H]1CCOC1)S(=O)(=O)c1ccc(N)cc1` : provide viability score
OUTPUT: 0.998

INPUT: Item `Oc1c(Cl)cc(Cl)cc1Sc1cc(Cl)cc(Cl)c1O` : provide viability score
OUTPUT: 0.441

INPUT: Item COc1cc(C2CC3CC2C(C)C3(C)C)ccc1O (stereo not drawn) : provide viability score
OUTPUT: 1.01

INPUT: Item `Cc1cccc(C(=O)NC2CCC(F)(F)CC2)c1` : provide viability score
OUTPUT: 1

INPUT: Item `COc1ccc(CC(=O)N2CCCc3ccccc32)cc1OC` : provide viability score
OUTPUT: 1.02

INPUT: Item `S=c1n(CN2CCOCC2)nc(-c2ccccc2Br)n1-c1ccccc1` : provide viability score
OUTPUT: 1

INPUT: Item `CC1CCN(c2cc(N3CCNCC3)ncn2)CC1` : provide viability score
OUTPUT: 0.997

INPUT: Item `COc1ccc(-c2noc(-c3ccc(=O)n(Cc4ncc(C)c(OC)c4C)c3)n2)cc1F` : provide viability score
OUTPUT: 0.956

INPUT: Item O=C(CC1Sc2ccccc2NC1=O)Nc1ccccc1 (stereo not drawn) : provide viability score
OUTPUT: 1.02

INPUT: Item `Cn1nc(-c2ccc(F)cc2)cc1C(=O)NCC1(CO)CC1` : provide viability score
OUTPUT: 1.02

INPUT: Item CC(C)(C)C(O)/C=C/c1ccc2c(c1)OCO2 (stereo not drawn) : provide viability score
OUTPUT: 0.819

INPUT: Item CN1C(CC(=O)c2ccccc2)CCCC1CC(O)c1ccccc1.Cl (stereo not drawn) : provide viability score
OUTPUT: 0.988
